Data credit: patent US9498483B2

Field: pIC50. Provide a value for each of the compounds that follow.
- System: HCV replicon I389luc-ubi-neo/NS3-3′/ET in ET (Huh-lucubineo-ET) cells
- method description: Replicon assay (Biological Example 2), luciferase readout
- Format: cell-based
- assay context: Hepatitis C virus; ET cells, luciferase activity 48 hours after compound
pIC50: −log10 of the molar value.

These recorded examples may help you get a feel for the data.
{"compound": "CC(C)(C)C#Cc1cc(N2C(=O)CCC[C@@H]2C2CCCCC2)c(C(=O)O)s1", "pIC50": "≤ 5.30"}
{"compound": "CC1(C)CCN(c2ccc(S(=O)(=O)N3CC(=O)N(c4cc(-c5ccccc5)sc4C(=O)O)[C@H](C4CCCCC4)C3)cn2)C1", "pIC50": "≥ 7.00"}
{"compound": "O=C(O)c1sc(-c2ccc(F)cc2)cc1N1C(=O)CN(S(=O)(=O)c2ccc(N3CCCCCC3)nc2)C[C@H]1C1CCCCC1", "pIC50": "≥ 7.00"}
{"compound": "Cc1ccc(-c2cc(N3C(=O)CN(S(=O)(=O)c4ccc(N5CCCC5)nc4)C[C@H]3C3CCCCC3)c(C(=O)O)s2)cc1", "pIC50": "≥ 7.00"}
{"compound": "O=C(O)c1sc(-c2ccc(Cl)cc2)cc1N1C(=O)CN(S(=O)(=O)c2ccc(N3CCCC3)cc2)C[C@H]1C1CCCCC1", "pIC50": "≥ 7.00"}

# batch: return pIC50 for each of the 2 compounds below
1. CC(C)(C)C#Cc1cc(N2C(=O)OCCC2C2CCCCC2)c(C(=O)O)s1 (stereo not shown)
2. CN1CCC(N2CC(=O)N(c3cc(-c4ccccc4)sc3C(=O)O)[C@H](C3CCCCC3)C2)CC1

["≥ 7.00", "≤ 5.30"]
